In this section we review reported peptide exchange yield values for a set of binders.
biological target: HLA-A*02 (human); assay: UV peptide-exchange ELISA, yield grade

{"Binder": "RLFPDFFTRVAL [RLFPDFFTRVAL (SEQ ID NO: 98)]", "Result": "20 to 49%"}
{"Binder": "FISERVEVV [FISERVEVV (SEQ ID NO: 153)]", "Result": "≥ 75%"}
{"Binder": "SLSNRLYYL [SLSNRLYYL (SEQ ID NO: 68)]", "Result": "50 to 75%"}
{"Binder": "SLADYEHFV [SLADYEHFV (SEQ ID NO: 125)]", "Result": "≥ 75%"}
{"Binder": "KLQGKLPEL [KLQGKLPEL (SEQ ID NO: 254)]", "Result": "20 to 49%"}

q: # input binder: KMNESTRSV [KMNESTRSV (SEQ ID NO: 239)] ; wanted: its peptide exchange yield
a: 20 to 49%

q: So what's the measured peptide exchange yield for this one? VLLDIQEVFQI [VLLDIQEVFQI (SEQ ID NO: 102)]
a: 50 to 75%

q: If you can, please state the reported peptide exchange yield value of YLWATIQRI [YLWATIQRI (SEQ ID NO: 145)] .
a: 50 to 75%
